Assay Remarks: in vivo
Condition Summary: rat, po, 1 mg/kg, Cmax of Kaempferol in serum
Quantity Name: Cmax (ng/mL)
# value in ng/mL; strip the unit string

**Q:** Let me know recorded Cmax for O=c1c(O)c(-c2ccc(O)cc2)oc2cc(O)cc(O)c12 [Kaempferol] , thanks.
**A:** 583
